biological target: cloned human or rodent CNS receptors, channels, and transporters (PDSP panel) (Homo sapiens); construct: expressed in transfected cells; experiment: PDSP GPCR panel primary binding assays at 10 μM; conditions: D5; primary assay, mean inhibition
Field: Mean %. Provide a value for each of the molecules that follow.
Give bare numbers, in %.

Sample answers from the record:
• CCC(=O)N1CCC(NC(=O)Nc2ccc(OC(F)(F)F)cc2)CC1 [UNC10302681A, TPPU] = -7.53
• CC(=O)N1CCC(NC(=O)NC23CC4CC(CC(C4)C2)C3)CC1 [UNC10302683A, AR9281] = -11.88
• O=C(NC1CC1)C(=O)C(Cc1ccccc1)NC(=O)[C@H]1CCC(=O)N1Cc1ccccc1 (stereo partly shown) [UNC10302676A, ABT-957 (Alicapistat)] = -6.38

Let's switch to this molecule now.
Quick one: Mean % for CNc1nc(C)nc(N[C@H]2CCC[C@@H](C(=O)NCc3ccc(C#N)cc3C(F)(F)F)C2)n1 [UNC10302679A, GSK2256294A] ?
-9.97

* * *

Target: cloned human or rodent CNS receptors, channels, and transporters (PDSP panel) (Homo sapiens, UniProt P46098)
Construct: expressed in transfected cells
Sequence (P46098 24-478): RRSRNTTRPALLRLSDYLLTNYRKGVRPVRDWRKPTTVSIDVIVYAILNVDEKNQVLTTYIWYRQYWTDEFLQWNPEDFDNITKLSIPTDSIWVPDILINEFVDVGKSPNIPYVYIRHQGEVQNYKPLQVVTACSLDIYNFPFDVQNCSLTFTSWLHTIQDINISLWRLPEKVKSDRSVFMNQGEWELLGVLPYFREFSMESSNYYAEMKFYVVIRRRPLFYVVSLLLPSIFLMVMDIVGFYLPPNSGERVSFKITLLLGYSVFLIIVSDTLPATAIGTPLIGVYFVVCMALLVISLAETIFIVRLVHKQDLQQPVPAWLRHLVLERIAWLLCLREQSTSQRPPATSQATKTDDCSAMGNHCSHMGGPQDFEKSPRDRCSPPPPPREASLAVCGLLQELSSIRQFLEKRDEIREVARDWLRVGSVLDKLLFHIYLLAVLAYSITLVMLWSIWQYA
Assay: PDSP GPCR panel primary binding assays at 10 μM
Details: 5-HT3; primary assay, replicate 1
parameter: Inhibition 1 (%)
Answers are plain numbers, in %.

Sample answers from the record:
* CC(=O)N1CCC(NC(=O)NC23CC4CC(CC(C4)C2)C3)CC1 [UNC10302683A, AR9281] | 9.48
* O=C(NC1CC1)C(=O)C(Cc1ccccc1)NC(=O)[C@H]1CCC(=O)N1Cc1ccccc1 (stereo partly shown) [UNC10302676A, ABT-957 (Alicapistat)] | -2.95
* CCC(=O)N1CCC(NC(=O)Nc2ccc(OC(F)(F)F)cc2)CC1 [UNC10302681A, TPPU] | 6.76

Let's switch to this compound now.
Quick one: Inhibition 1 for CNc1nc(C)nc(N[C@H]2CCC[C@@H](C(=O)NCc3ccc(C#N)cc3C(F)(F)F)C2)n1 [UNC10302679A, GSK2256294A] ?
4.04

* * *

tested on: cloned human or rodent CNS receptors, channels, and transporters (PDSP panel); test: PDSP GPCR panel primary binding assays at 10 μM; details: Receptor Alpha2A; primary assay, 10 μM; mean of Inhibition 1-4
Field: Mean %. Provide a value for each of the compounds that follow.
Answers are plain numbers, in %.

* CCCCNc1ncc2c(-c3ccc(CN4CCN(C)CC4)cc3)cn([C@H]3CC[C@H](O)CC3)c2n1 [UNC2025C, UNC2025] | 39
* Cl.NC(=O)c1cnc(N[C@@H]2CCCC[C@@H]2N)nc1Nc1cccc(-n2nccn2)c1 [UNC10302682A, P505-15 (PRT06207 HCl)] | 20.26
* O=c1oc2ccccc2cc1-c1cn2cc(Cc3ccc(F)cc3)sc2n1 [UNC10302680A, iMDK] | -2.06

Let's switch to this compound now.
Quick one: Mean % for c1cn2cc(-c3ccc4cn[nH]c4c3)nc(Nc3ccc(N4CCOCC4)cc3)c2n1 [UNC10302678A, Entospletinib (GS-9973)] ?
-6.95

* * *

Biological target: cloned human or rodent CNS receptors, channels, and transporters (PDSP panel) (Homo sapiens, UniProt P41145)
Construct: expressed in transfected cells
Sequence (P41145 whole entry): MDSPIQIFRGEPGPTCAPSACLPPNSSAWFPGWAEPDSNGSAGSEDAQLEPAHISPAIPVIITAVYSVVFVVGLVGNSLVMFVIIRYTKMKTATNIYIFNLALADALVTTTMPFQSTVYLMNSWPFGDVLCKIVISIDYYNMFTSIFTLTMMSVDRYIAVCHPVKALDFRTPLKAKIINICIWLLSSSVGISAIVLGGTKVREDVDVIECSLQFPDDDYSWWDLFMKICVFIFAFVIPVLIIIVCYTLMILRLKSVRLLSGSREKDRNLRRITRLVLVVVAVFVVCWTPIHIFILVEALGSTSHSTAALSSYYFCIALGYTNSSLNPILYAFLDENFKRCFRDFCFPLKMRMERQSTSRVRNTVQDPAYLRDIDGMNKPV
Test: PDSP GPCR panel primary binding assays at 10 μM
Conditions: Receptor KOR; primary assay, 10 μM
Description: GPCR panel: Screening against the receptors within the PDSP panel offers an assessment of off-target pharmacological activity at cloned human or rodent CNS receptors, channels, and transporters that could confound CNS-related phenotypes. A total of 46–47 primary binding assays were run in quadruplicate on these compounds at 10 μM, with follow-up secondary binding assays in 11-point dose-response in triplicate for select compounds versus select receptors. […]
Field: Inhibition 3. Provide a value for each of the compounds that follow.

Sample answers from the record:
* O=c1oc2ccccc2cc1-c1cn2cc(Cc3ccc(F)cc3)sc2n1 [UNC10302680A, iMDK] | -5.6%
* c1cn2cc(-c3ccc4cn[nH]c4c3)nc(Nc3ccc(N4CCOCC4)cc3)c2n1 [UNC10302678A, Entospletinib (GS-9973)] | -49.37%
* Cl.NC(=O)c1cnc(N[C@@H]2CCCC[C@@H]2N)nc1Nc1cccc(-n2nccn2)c1 [UNC10302682A, P505-15 (PRT06207 HCl)] | -46.91%

Let's switch to this compound now.
Quick one: Inhibition 3 for CCCCNc1ncc2c(-c3ccc(CN4CCN(C)CC4)cc3)cn([C@H]3CC[C@H](O)CC3)c2n1 [UNC2025C, UNC2025] ?
-40.41%

* * *

Molecular target: H4 receptor (Homo sapiens, UniProt Q9H3N8)
Construct: expressed in transfected cells
Sequence (Q9H3N8 whole entry): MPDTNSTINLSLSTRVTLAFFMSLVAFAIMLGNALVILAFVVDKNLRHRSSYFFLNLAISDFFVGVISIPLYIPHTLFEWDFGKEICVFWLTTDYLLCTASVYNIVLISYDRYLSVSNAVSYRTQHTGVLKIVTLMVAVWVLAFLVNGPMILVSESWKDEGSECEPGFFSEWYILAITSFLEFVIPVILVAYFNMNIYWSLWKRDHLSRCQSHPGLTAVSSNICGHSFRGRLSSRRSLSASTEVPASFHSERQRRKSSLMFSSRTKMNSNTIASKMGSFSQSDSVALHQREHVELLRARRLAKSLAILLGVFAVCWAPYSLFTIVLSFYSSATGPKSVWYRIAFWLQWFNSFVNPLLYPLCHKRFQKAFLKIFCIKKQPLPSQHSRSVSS
Test: PDSP secondary binding, H4
Set-up: species or system human or rodent
Conditions: calculated Ki, secondary binding assay; read-out: Ki H4
Protocol: GPCR panel: Screening against the receptors within the PDSP panel offers an assessment of off-target pharmacological activity at cloned human or rodent CNS receptors, channels, and transporters that could confound CNS-related phenotypes. A total of 46–47 primary binding assays were run in quadruplicate on these compounds at 10 μM, with follow-up secondary binding assays in 11-point dose-response in triplicate for select compounds versus select receptors. […]
parameter: Ki (µM)
Numbers only, in µM.

Give H4 receptor (Homo sapiens, UniProt Q9H3N8) Ki for CCCCNc1ncc2c(-c3ccc(CN4CCN(C)CC4)cc3)cn([C@H]3CC[C@H](O)CC3)c2n1 [UNC2025C, UNC2025]
4

* * *

Field: Mean %. Provide a value for each of the compounds that follow.
biological target: cloned human or rodent CNS receptors, channels, and transporters (PDSP panel) (Homo sapiens, UniProt P21917); construct: expressed in transfected cells; assay: PDSP GPCR panel primary binding assays at 10 μM; conditions: Receptor D4; primary assay, 10 μM; mean of Inhibition 1-4
Sequence (P21917 whole entry): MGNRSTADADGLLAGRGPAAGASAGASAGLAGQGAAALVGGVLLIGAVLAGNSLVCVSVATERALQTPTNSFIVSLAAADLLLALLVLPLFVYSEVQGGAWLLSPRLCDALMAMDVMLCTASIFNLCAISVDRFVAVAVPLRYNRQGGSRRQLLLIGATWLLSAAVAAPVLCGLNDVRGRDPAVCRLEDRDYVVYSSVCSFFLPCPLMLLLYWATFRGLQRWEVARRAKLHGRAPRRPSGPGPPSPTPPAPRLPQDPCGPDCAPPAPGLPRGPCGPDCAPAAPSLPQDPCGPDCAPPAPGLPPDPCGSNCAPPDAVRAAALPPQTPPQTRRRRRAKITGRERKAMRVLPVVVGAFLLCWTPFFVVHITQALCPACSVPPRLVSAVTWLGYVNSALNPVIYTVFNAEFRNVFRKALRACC
One number for each entry, in %.

Sample answers from the record:
- O=c1oc2ccccc2cc1-c1cn2cc(Cc3ccc(F)cc3)sc2n1 [UNC10302680A, iMDK]: -2.34
- CCCCNc1ncc2c(-c3ccc(CN4CCN(C)CC4)cc3)cn([C@H]3CC[C@H](O)CC3)c2n1 [UNC2025C, UNC2025]: -0.38

Provide reported Mean % for each item, in the same order as listed.
1. c1cn2cc(-c3ccc4cn[nH]c4c3)nc(Nc3ccc(N4CCOCC4)cc3)c2n1 [UNC10302678A, Entospletinib (GS-9973)]
2. Cl.NC(=O)c1cnc(N[C@@H]2CCCC[C@@H]2N)nc1Nc1cccc(-n2nccn2)c1 [UNC10302682A, P505-15 (PRT06207 HCl)]

1: 3.13; 2: 11.93

* * *

target: cloned human or rodent CNS receptors, channels, and transporters (PDSP panel) (Homo sapiens, UniProt P08908); construct: expressed in transfected cells; assay: PDSP GPCR panel primary binding assays at 10 μM; details: 5-HT1A; primary assay, replicate 2
Sequence (P08908 whole entry): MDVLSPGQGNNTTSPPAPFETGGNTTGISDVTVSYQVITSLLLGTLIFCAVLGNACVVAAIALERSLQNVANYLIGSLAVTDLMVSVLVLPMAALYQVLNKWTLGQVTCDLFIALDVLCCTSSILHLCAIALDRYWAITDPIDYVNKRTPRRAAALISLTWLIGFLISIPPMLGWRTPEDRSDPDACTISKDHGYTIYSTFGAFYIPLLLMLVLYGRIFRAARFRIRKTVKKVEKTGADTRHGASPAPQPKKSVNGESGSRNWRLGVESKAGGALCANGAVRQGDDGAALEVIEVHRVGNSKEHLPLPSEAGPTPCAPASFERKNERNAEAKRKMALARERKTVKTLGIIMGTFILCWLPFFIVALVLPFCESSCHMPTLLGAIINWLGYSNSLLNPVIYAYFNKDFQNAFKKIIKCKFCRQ
Field: Inhibition 2. Provide a value for each of the compounds that follow.
Numbers only, in %.

Sample answers from the record:
• O=C(NC1CC1)C(=O)C(Cc1ccccc1)NC(=O)[C@H]1CCC(=O)N1Cc1ccccc1 (stereo partly shown) [UNC10302676A, ABT-957 (Alicapistat)] = 2.5
• CC(=O)N1CCC(NC(=O)NC23CC4CC(CC(C4)C2)C3)CC1 [UNC10302683A, AR9281] = -13.88
• CCC(=O)N1CCC(NC(=O)Nc2ccc(OC(F)(F)F)cc2)CC1 [UNC10302681A, TPPU] = 25.6

Quick one: Inhibition 2 for CNc1nc(C)nc(N[C@H]2CCC[C@@H](C(=O)NCc3ccc(C#N)cc3C(F)(F)F)C2)n1 [UNC10302679A, GSK2256294A] ?
4.74
